Tested on: 521955-158-R2-J5-PDC complex spheroids, viability;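 also: spheroids also contain HUVEC endothelial cells and mesenchymal stem cells as stroma; compound exposure lasted seven days before the viability read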
Assay: Anticancer human tumor 521955-158-R2-J5-PDC patient-derived pancreatic carcinoma cell line growth inhibition [RAS]
Details: second compound 0.0949 µM; first compound 0.316 µM; active compounds read low
endpoint: viability, T/C (%)
# output: bare number, implied unit %

compound: C=CC(=O)N1CCN(c2nc(OCC3CCCN3C)nc3c(F)c(-c4nc(N)cc(C)c4C(F)(F)F)c(Cl)cc23)C(C)C1 (centres undefined) + CCn1c(-c2cccnc2C(C)OC)c2c3cc(ccc31)N1CCOC(CC(NC(=O)C(C(C)C)N(C)C(=O)C3(F)CCN(C(=O)C#CC(C)(C)N(C)C)CC3)C(=O)N3CCCC(N3)C(=O)OCC(C)(C)C2)C1
target.desc: 521955-158-R2-J5-PDC complex spheroids, viability;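 also: spheroids also contain HUVEC endothelial cells and mesenchymal stem cells as stroma; compound exposure lasted seven days before the viability read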
value.units: %
value.measured: 98.1
//
compound: CCN1CCN(Cc2ccc(Nc3ncc(F)c(-c4cc(F)c5nc(C)n(C(C)C)c5c4)n3)nc2)CC1 + CCn1c(-c2cc(N3CCN(C)CC3)cnc2C(C)OC)c2c3cc(ccc31)-c1csc(n1)CC(NC(=O)C1CC1C)C(=O)N1CCCC(N1)C(=O)OCC(C)(C)C2
target.desc: 521955-158-R2-J5-PDC complex spheroids, viability;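 also: spheroids also contain HUVEC endothelial cells and mesenchymal stem cells as stroma; compound exposure lasted seven days before the viability read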
value.units: %
value.measured: 13.6
//
compound: O=C(c1ccc(F)c(F)c1Nc1ccc(I)cc1F)N1CC(O)([C@@H]2CCCCN2)C1 + CCn1c(-c2cccnc2C(C)OC)c2c3cc(ccc31)N1CCOC(CC(NC(=O)C(C(C)C)N(C)C(=O)C3(F)CCN(C(=O)C#CC(C)(C)N(C)C)CC3)C(=O)N3CCCC(N3)C(=O)OCC(C)(C)C2)C1
target.desc: 521955-158-R2-J5-PDC complex spheroids, viability;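 also: spheroids also contain HUVEC endothelial cells and mesenchymal stem cells as stroma; compound exposure lasted seven days before the viability read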
value.units: %
value.measured: 32.4

Kindly review the next compound as well.
Incoming: Can you look up the measured viability, T/C of C[C@@H](NC(=O)c1ncnc(N)c1Cl)c1ncc(C(=O)Nc2cc(C(F)(F)F)c(Cl)cn2)s1 + CCn1c(-c2cccnc2C(C)OC)c2c3cc(ccc31)N1CCOC(CC(NC(=O)C(C(C)C)N(C)C(=O)C3(F)CCN(C(=O)C#CC(C)(C)N(C)C)CC3)C(=O)N3CCCC(N3)C(=O)OCC(C)(C)C2)C1 for me?
Outgoing: 79.6
